# test_system: Aspartate--tRNA(Asp/Asn) ligase (Mycobacterium tuberculosis (strain ATCC 25618 / H37Rv)) (UniProt P9WFW3); further: in the data most compounds retested in dose-response had high values
# Sequence (P9WFW3 whole entry): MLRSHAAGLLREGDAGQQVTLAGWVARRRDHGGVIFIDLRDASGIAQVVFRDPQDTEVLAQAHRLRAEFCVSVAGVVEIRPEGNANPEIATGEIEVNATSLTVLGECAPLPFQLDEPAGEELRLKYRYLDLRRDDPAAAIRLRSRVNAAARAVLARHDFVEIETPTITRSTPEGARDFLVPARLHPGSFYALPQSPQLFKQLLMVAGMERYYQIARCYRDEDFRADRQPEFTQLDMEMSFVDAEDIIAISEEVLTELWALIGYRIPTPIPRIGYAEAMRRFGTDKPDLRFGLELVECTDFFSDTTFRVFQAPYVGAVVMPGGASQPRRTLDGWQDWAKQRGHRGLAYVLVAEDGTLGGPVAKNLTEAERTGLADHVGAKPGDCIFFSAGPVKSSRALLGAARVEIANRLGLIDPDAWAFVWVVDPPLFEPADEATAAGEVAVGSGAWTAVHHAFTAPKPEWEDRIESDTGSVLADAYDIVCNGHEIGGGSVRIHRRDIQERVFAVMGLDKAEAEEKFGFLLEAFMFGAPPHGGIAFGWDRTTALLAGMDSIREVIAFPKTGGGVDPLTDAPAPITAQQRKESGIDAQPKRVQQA
# measurement_protocol: Assay for Asp RNA synthetase-1 from Mycobacterium tuberculosis
# Type: functional
# Parameters: scale not given: direction of the effect not stated beside the values
# stated_conditions: 30 µM
endpoint: Percent Effect (%)
All answers are understood in %, so give the number only.

Please review the entries below; each comes with its answer.
COc1nc2c(cc1C(=O)N1C[C@H](N)C[C@H]1C(=O)NC(C)C)CCC2 | -4.9
CCn1cc2c(n1)C(COC)CN(C(=O)COc1ccccc1C)C2 (stereo unspecified) | 2.12
CS(=O)(=O)N1CCc2c(cccc2NC(=O)CC(F)(F)F)C1 | 5.45
Cc1ccc(N2CCCC(NCc3ccc(C)o3)C2)nn1 (stereo unspecified) | -0.626
CCc1cc(O)nc(C2CCCN2C(=O)c2cc(C)no2)n1 (stereo unspecified) | 7.1
CC(NC(=O)CSCC(=O)Nc1ccccc1)c1ccccc1 (stereo unspecified) | 3.01
CCN1C(=O)C2(CCOCC2)c2cc(NC(=O)c3ccco3)ccc21 | -3.45
COc1cccc(-c2noc(-c3ccc(NCC4CC4)nc3)n2)c1OC | -3.57
CCc1ccccc1-n1nnc(C(=O)O)c1-c1ccccn1 | 6.47
O=C1NC(c2ccccc2)=N[C@@]12CC[C@@H]1CN(CC3CCOCC3)C[C@@H]12 | 1.31

Proceed to the following item.
Quick one: Percent Effect of Cc1cc(-c2cnn(CCNC(=O)c3cccnc3)c2C2CC2)on1 ?
0.491

---

# test_system: Shiga toxin 2 (Escherichia coli O157:H7) (UniProt P09385+P09386)
# measurement_protocol: E. coli 0.157:H7 Shiga Toxin SOP - stx2 screening assay
# Format: functional
# Parameters: scale not given: direction of the effect not stated beside the values
# stated_conditions: 30 µM
# Percent Effect per record follows
All answers are understood in %, so give the number only.

c1ccc(-c2noc(CNC3CCc4ncnn4C3)n2)nc1 (centres undefined) | 16.9

Quick one: Percent Effect of CCOC(=O)CCC(=O)N1CCC(Oc2ccc(C(F)(F)F)cn2)CC1 ?
12.6

Quick one: Percent Effect of COCc1c(C(=O)O)nnn1Cc1cccc(C(F)(F)F)c1 ?
-31

Quick one: Percent Effect of COC(=O)C(NC(=O)COC1CCCC1)c1cc(F)ccc1F (centres undefined) ?
-22.4

---

# test_system: Aspartate--tRNA(Asp/Asn) ligase (Mycobacterium tuberculosis (strain ATCC 25618 / H37Rv)) (UniProt P9WFW3); further: in the data most compounds retested in dose-response had high values
# measurement_protocol: Assay for Asp RNA synthetase-1 from Mycobacterium tuberculosis
# Assay type: functional
# Parameters: scale not given: direction of the effect not stated beside the values
# stated_conditions: 30 µM
endpoint: Percent Effect

CNS(=O)(=O)c1cccc(CNc2cc(C(F)(F)F)ccn2)c1 | -2.24%
O=C(CCn1ccccc1=O)Nc1ccc(F)c(Cl)c1 | 5.06%

Quick one: Percent Effect of CC(=O)N1CCCC(c2ccc(Nc3nc(C)cc(C)n3)cn2)C1 (centres undefined) ?
-1.31%

Quick one: Percent Effect of CCOCCCn1c(NC(=O)c2cnn(C)c2)nc2ccccc21 ?
-2.49%

Quick one: Percent Effect of FC(F)(F)c1cccc(C2(CNCc3ccncc3)CCOCC2)c1 ?
2.66%

Quick one: Percent Effect of O=C(c1ccsc1)N1CCc2c(COCc3ccncc3)cncc2C1 ?
-1.03%

Quick one: Percent Effect of CC(C)NC(=O)C1CN(C(=O)c2ccco2)CC12CCOCC2 (centres undefined) ?
9.32%

Quick one: Percent Effect of Cc1cc2n(n1)CC(CNCc1ccc(-n3cccn3)nc1)CN2 (centres undefined) ?
-2.59%

Quick one: Percent Effect of O=C(CO)N1CCc2onc(Cn3cccn3)c2C1 ?
-1.21%

---

# Percent Effect per record follows
# test_system: Aspartate--tRNA(Asp/Asn) ligase (Mycobacterium tuberculosis (strain ATCC 25618 / H37Rv)) (UniProt P9WFW3); further: in the data most compounds retested in dose-response had high values
# measurement_protocol: Assay for Asp RNA synthetase-1 from Mycobacterium tuberculosis
# Type: functional
# Parameters: scale not given: direction of the effect not stated beside the values
# stated_conditions: 30 µM
All answers are understood in %, so give the number only.

Please review the entries below; each comes with its answer.
Cn1cc(N2CCC3(CCN(S(=O)(=O)C4CC4)C3)C2=O)cn1 (centres undefined) | -3.64
CN1CCC(Oc2ccc(NC(=O)c3ccccc3Br)cc2)CC1 | -0.921

Quick one: Percent Effect of O=C(C[C@@H]1COC[C@H]2CN(Cc3ccc(F)cc3)C[C@@H]12)N1CCCCO1 ?
3.14

Quick one: Percent Effect of CSCC(C)(O)CNC(=O)c1ccc(Br)cc1C (centres undefined) ?
-3.46

Quick one: Percent Effect of COc1cc(CNCC(O)c2ccc(F)c(F)c2)cc2c1OCO2 (centres undefined) ?
1.66

Quick one: Percent Effect of COc1ccc(CN2CCCC(Cn3nc(C)nc3C)C2)cc1F (centres undefined) ?
0.335

---

# test_system: Shiga toxin 2 (Escherichia coli O157:H7) (UniProt P09385+P09386)
# measurement_protocol: E. coli 0.157:H7 Shiga Toxin SOP - stx2 screening assay
# Format: functional
# Design: scale not given: direction of the effect not stated beside the values
# stated_conditions: 30 µM
# Percent Effect per record follows
All answers are understood in %, so give the number only.

Please review the entries below; each comes with its answer.
CC(C)(C)C(=O)N1CCC(c2nc(O)cc(-c3ccccn3)n2)CC1 | -6.29
O=S(=O)(Nc1cnn(C2CCOCC2)c1)c1c(F)cccc1F | 1.54
Cc1cc(C)c(OCC(=O)NS(=O)(=O)c2cccnc2)c(C)c1 | -1.8
COc1cc(CNCc2ccc(C(C)O)cc2)cc2c1OCO2 (stereo unspecified) | -48
Cc1ccc(-c2ncc(C(=O)NCCNc3ncccn3)s2)c(C)c1 | -13.5

Proceed to the following item.
Quick check: Percent Effect on Shiga toxin 2 (Escherichia coli O157:H7) (UniProt P09385+P09386), item Cn1ncc2c1CCCC2NCc1ccc(Cl)s1 (stereo unspecified) ?
28.8

---

# test_system: Aspartate--tRNA(Asp/Asn) ligase (Mycobacterium tuberculosis (strain ATCC 25618 / H37Rv)) (UniProt P9WFW3); further: in the data most compounds retested in dose-response had high values
# measurement_protocol: Assay for Asp RNA synthetase-1 from Mycobacterium tuberculosis
# Type: functional
# Set-up: scale not given: direction of the effect not stated beside the values
# stated_conditions: 30 µM
endpoint: Percent Effect (%)
All answers are understood in %, so give the number only.

Please review the entries below; each comes with its answer.
CCOc1ccc(N2CCCN=C2NC(=O)c2cccc(Cl)c2)cc1 | 9.12
CC(C)CCn1[nH]c(CNc2ccccc2)nc1=O | 5.27

Quick one: Percent Effect of CC(C)c1cc(CNC(=O)N2CCC(Cc3cnn(C)c3)C2)on1 (centres undefined) ?
-3.72

Quick one: Percent Effect of CC(NC(=O)NCc1ccc(Cl)s1)c1ccccn1 (centres undefined) ?
-0.451

---

# test_system: Tyrosyl-tRNA synthetase, putative (Trypanosoma cruzi (strain CL Brener))
# Sequence (whole entry): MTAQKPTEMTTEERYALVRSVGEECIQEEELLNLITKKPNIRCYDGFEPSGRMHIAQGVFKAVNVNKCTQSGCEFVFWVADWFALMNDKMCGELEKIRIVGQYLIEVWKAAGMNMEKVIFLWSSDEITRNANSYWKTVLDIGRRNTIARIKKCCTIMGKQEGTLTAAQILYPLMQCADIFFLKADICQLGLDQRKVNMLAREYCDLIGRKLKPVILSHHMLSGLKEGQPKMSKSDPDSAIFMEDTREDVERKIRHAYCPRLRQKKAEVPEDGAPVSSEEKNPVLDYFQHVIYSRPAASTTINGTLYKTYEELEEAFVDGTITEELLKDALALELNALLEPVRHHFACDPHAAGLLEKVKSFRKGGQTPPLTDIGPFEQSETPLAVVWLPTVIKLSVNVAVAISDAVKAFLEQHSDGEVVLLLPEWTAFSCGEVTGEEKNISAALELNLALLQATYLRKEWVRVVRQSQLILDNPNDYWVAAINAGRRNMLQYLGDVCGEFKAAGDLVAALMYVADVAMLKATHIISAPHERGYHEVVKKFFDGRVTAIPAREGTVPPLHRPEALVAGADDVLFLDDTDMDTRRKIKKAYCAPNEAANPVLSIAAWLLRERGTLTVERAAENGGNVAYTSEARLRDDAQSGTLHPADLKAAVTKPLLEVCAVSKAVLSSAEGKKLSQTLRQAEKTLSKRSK
# measurement_protocol: Trypanosoma cruzi tyrosyl tRNA synthetase (TcYRS) _High Tyrosine SOP; further: in the data most compounds retested in dose-response had high values
# Type: functional
# Set-up: scale not given: direction of the effect not stated beside the values
# stated_conditions: 30 µM
endpoint: Percent Effect (%)
All answers are understood in %, so give the number only.

Quick one: Percent Effect of O=C1CSC(c2ccsc2)c2sccc2N1 (stereo not drawn) ?
-1.06

Quick one: Percent Effect of c1cc(CN2C[C@@H]3COC[C@]3(COCC3CC3)C2)ccn1 ?
2.12
